Biological target: JAK2 (Homo sapiens (Human), UniProt O60674)
Sequence (O60674 whole entry): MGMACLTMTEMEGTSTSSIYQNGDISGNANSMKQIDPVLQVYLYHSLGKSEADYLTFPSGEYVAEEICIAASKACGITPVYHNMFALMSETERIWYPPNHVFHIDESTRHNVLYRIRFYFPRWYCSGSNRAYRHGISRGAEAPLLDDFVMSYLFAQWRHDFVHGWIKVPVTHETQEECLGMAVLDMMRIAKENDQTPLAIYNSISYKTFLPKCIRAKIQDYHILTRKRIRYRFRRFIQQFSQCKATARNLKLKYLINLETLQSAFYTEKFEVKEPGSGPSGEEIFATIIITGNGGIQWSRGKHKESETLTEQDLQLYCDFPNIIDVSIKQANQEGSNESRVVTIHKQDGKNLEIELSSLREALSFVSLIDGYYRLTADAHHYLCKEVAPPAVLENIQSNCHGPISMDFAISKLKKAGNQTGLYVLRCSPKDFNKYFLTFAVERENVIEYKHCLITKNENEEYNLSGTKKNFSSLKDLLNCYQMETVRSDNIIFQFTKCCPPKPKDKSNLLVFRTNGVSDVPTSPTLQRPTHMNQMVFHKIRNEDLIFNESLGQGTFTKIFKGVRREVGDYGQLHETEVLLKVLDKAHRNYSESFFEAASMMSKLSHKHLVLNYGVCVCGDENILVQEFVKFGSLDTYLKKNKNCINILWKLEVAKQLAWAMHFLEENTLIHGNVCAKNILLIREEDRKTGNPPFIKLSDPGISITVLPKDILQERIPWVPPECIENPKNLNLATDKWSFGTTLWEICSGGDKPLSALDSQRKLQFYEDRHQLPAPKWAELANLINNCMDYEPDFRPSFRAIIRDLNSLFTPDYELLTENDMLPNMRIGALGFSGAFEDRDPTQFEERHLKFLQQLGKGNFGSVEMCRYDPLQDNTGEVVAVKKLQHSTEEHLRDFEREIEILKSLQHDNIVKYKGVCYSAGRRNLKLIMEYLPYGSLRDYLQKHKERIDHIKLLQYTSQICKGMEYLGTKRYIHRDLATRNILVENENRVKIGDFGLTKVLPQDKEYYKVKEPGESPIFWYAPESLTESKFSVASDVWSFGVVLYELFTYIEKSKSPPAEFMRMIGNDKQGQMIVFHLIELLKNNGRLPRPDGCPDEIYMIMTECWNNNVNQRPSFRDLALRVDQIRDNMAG
Assay: JAK2 LANCE Ultra kinase assay
Type: biochemical
Details: 12 uM ATP
Parameter Measured: IC50

Example entries begin here.
Reported IC50, molecule CN(C)c1nsc(NC(=O)N2C[C@H]3C[C@H](N(C)c4c(C#N)cnc5[nH]ccc45)C[C@H]3C2)n1 : ____ 5.7 nM

Reported IC50, molecule CN1CCN(S(=O)(=O)C[C@H]2CC[C@H](N(C)c3c(C#N)cnc4[nH]ccc34)CC2)CC1 : ____ 7.3 nM

Reported IC50, molecule CC[C@@H]1CN(C(=O)NC(C)C)C[C@@H]1Nc1c(C#N)cnc2[nH]ccc12 (relative stereo) : ____ 17.3 nM

Reported IC50, molecule CC[C@@H]1CN(C(=O)CCC#N)C[C@@H]1Nc1c(C#N)cnc2[nH]ccc12 (relative stereo) : ____ 117 nM

Reported IC50, molecule C[C@H](O)C(=O)N1C[C@H]2C[C@@H](N(C)c3c(C#N)cnc4[nH]ccc34)C[C@H]2C1 : ____ 29.9 nM

Reported IC50, molecule CN(c1c(C#N)cnc2[nH]ccc12)[C@H]1C[C@@H]2CN(S(=O)(=O)CCC(F)(F)F)C[C@@H]2C1 : ____ 33 nM

Reported IC50, molecule CC(C)[C@@H]1CN(C(=O)NCC(F)(F)F)C[C@@H]1Nc1c(C#N)cnc2[nH]ccc12 (relative stereo) : ____ 30 nM

Reported IC50, molecule O=C(NCC(F)(F)F)N1C[C@H](Nc2c(C(F)(F)F)cnc3[nH]ccc23)[C@H](C2CC2)C1 (relative stereo) : ____ 18.7 nM

More entries:
Reported IC50, molecule CC[C@@H]1CN(C(=O)NC2CC2)C[C@@H]1Nc1c(C#N)cnc2[nH]ccc12 (relative stereo) : ____ 38 nM

Reported IC50, molecule CCC1CN(C(=O)NCC(F)F)CC1Nc1c(C#N)cnc2[nH]ccc12 (stereo not shown) : ____ 45 nM

###

Measured AUC(0-t), listed per entry for reference.
Test: Pharmacokinetic test after intragastric administration
Format: in vivo
Settings: Sprague-Dawley, mouse, plasma, po; SD mice, 5 mg/kg intragastric; read-out: Area under the curve (AUC0-24, ng/ml · h)
Kindly answer with a numeric value in ng·h/mL, unit omitted.

Example entries begin here.
Reported AUC(0-t), compound N#Cc1cnc2[nH]ccc2c1N[C@H]1C[C@@H](NS(=O)(=O)CCC(F)(F)F)C1 [Compound H12] : ____ 1020

Reported AUC(0-t), compound C[C@@H]1CCN(C(=O)CC#N)C[C@@H]1N(C)c1c(C#N)cnc2[nH]ccc12 [Compound H11] : ____ 2620

More entries:
Reported AUC(0-t), compound COc1nsc(NC(=O)N[C@H]2C[C@@H](N(C)c3c(C#N)cnc4[nH]ccc34)C2)n1 [Compound H29] : ____ 1530

Reported AUC(0-t), compound CC[C@@H]1CN(C(=O)NCC(F)(F)F)CC1Nc1c(C#N)cnc2[nH]ccc12 (some centres unmarked) [Compound H01] : ____ 1720

Reported AUC(0-t), compound COc1nsc(NC(=O)N2C[C@H]3C[C@H](N(C)c4c(C#N)cnc5[nH]ccc45)C[C@H]3C2)n1 [Compound H07] : ____ 1920

Reported AUC(0-t), compound CC(C)c1nsc(NC(=O)N2C[C@H]3C[C@H](N(C)c4c(C#N)cnc5[nH]ccc45)C[C@H]3C2)n1 [Compound H30] : ____ 923

Reported AUC(0-t), compound CN(c1c(C#N)cnc2[nH]ccc12)[C@H]1C[C@@H]2CN(C(=O)NCC(F)(F)F)C[C@@H]2C1 [Compound H22] : ____ 757

Reported AUC(0-t), compound CN(c1c(C#N)cnc2[nH]ccc12)[C@H]1C[C@@H]2CN(C(=O)Nc3ccc(Cl)c(C(F)(F)F)c3)C[C@@H]2C1 [Compound H25] : ____ 1270
